All figures here come from paper PMC10247784.

Assay target: human TAS2R14 (Homo sapiens, UniProt Q9NYV8)
Construct: expressed in transfected cells; host or cells: HEK293T-Gα16gust44
Sequence (Q9NYV8 whole entry): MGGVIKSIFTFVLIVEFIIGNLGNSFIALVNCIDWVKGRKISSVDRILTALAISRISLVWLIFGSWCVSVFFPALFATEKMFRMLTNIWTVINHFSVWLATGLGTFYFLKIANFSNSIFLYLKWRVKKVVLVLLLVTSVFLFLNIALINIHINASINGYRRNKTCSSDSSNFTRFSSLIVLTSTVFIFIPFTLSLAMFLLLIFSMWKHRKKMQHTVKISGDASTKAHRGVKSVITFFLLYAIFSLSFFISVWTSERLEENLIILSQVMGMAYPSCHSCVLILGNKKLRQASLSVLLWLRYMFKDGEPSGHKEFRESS
Protocol text: Calcium imaging assay (FLIPR), HEK293T-Gα16gust44 cells transfected with human TAS2R14
Type: cell-based
Conditions: TAS2R14 trace; Time (s) 130.797 (Chenodeoxycholic Acid 130.781)
Recorded metric: RLU

Solved entries (count: 3):
{"Compound": "C[C@H](CCC(=O)NCCS(=O)(=O)O)[C@H]1CC[C@H]2[C@@H]3[C@H](O)C[C@@H]4C[C@H](O)CC[C@]4(C)[C@H]3C[C@H](O)[C@]12C [Taurocholic Acid, taurocholic acid]", "RLU": "1042.75 RLU"}
{"Compound": "C[C@H](CCC(=O)O)[C@H]1CC[C@H]2[C@@H]3[C@H](O)C[C@@H]4C[C@H](O)CC[C@]4(C)[C@H]3C[C@H](O)[C@]12C [Cholic Acid, cholic acid]", "RLU": "1262.68 RLU"}
{"Compound": "C[C@H](CCC(=O)NCC(=O)O)[C@H]1CC[C@H]2[C@@H]3[C@H](O)C[C@@H]4C[C@H](O)CC[C@]4(C)[C@H]3C[C@H](O)[C@]12C [Glycocholic Acid, glycocholic acid]", "RLU": "907.598 RLU"}

Query: Consider the compound C[C@H](CCC(=O)NCCS(=O)(=O)O)[C@H]1CC[C@H]2[C@@H]3CC[C@@H]4C[C@H](O)CC[C@]4(C)[C@H]3CC[C@]12C [Taurolithocholic Acid, taurolithocholic acid] tested on human TAS2R14 (Homo sapiens, UniProt Q9NYV8); state its RLU.
Response: 379.935 RLU

Query: Return reported RLU for target or system human TAS2R14 (Homo sapiens, UniProt Q9NYV8), item C[C@H](CCC(=O)O)[C@H]1CC[C@H]2[C@@H]3[C@H](O)C[C@@H]4C[C@H](O)CC[C@]4(C)[C@H]3CC[C@]12C [Chenodeoxycholic Acid, chenodeoxycholic acid] .
Response: 467.418 RLU
